# tested system: UniProtKB O76083
# Sequence (O76083 whole entry): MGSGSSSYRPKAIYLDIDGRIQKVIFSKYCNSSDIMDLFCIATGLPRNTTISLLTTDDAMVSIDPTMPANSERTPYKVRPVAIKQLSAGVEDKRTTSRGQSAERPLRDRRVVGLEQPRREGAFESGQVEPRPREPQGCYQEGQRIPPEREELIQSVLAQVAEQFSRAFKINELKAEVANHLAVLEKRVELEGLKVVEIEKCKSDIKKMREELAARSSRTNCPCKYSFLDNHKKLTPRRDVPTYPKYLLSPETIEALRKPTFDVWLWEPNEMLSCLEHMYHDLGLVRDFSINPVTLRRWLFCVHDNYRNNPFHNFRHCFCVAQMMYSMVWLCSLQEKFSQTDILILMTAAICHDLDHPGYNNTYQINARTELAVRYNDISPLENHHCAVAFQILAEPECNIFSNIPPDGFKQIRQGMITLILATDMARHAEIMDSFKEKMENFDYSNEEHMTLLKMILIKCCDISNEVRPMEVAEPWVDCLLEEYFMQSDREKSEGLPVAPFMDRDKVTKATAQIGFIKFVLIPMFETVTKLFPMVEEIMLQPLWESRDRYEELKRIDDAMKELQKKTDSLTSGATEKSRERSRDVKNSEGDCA
pIC50: −log10 of the molar value.
pIC50 of 8 or higher: yes (1). Under 8: no (0).

Does the reported pIC50 for `Cc1cc2[nH]c(=O)c3cnn([C@H]4CCOC4)c3c2cc1C(=O)N1CCN(CCC(F)(F)F)CC1` fall at or above the 8 mark?
no (0)

Does the reported pIC50 for `COCCCN1CCN(C(=O)c2cc3c(cc2C)[nH]c(=O)c2cnn(CC4CC4)c23)C[C@@H]1C` fall at or above the 8 mark?
yes (1)

Does the reported pIC50 for `Cc1cc2[nH]c(=O)c3cnn(C4CCOCC4)c3c2cc1C(=O)N1CCC(OCC(F)F)CC1` fall at or above the 8 mark?
yes (1)

Does the reported pIC50 for `COCCCCN1CCN(C(=O)c2cc3c(cc2C)[nH]c(=O)c2cnn(C4CCC4)c23)C[C@@H]1C` fall at or above the 8 mark?
yes (1)

Does the reported pIC50 for `Cc1cc2[nH]c(=O)c3cnn([C@H]4CCOC4)c3c2cc1C(=O)N1CCC(OC2CCC2)CC1` fall at or above the 8 mark?
yes (1)

Does the reported pIC50 for `CCOCC1CCN(C(=O)c2cc3c(cc2C(F)(F)F)[nH]c(=O)c2cnn(C4CCOCC4)c23)CC1` fall at or above the 8 mark?
no (0)

Does the reported pIC50 for `Cc1cc2[nH]c(=O)c3cnn([C@H]4CCOC4)c3c2cc1C(=O)N1CCC(OC[C@H](C)F)CC1` fall at or above the 8 mark?
yes (1)

Does the reported pIC50 for `Cc1cc2[nH]c(=O)c3cnn(C4CCCC4)c3c2cc1C(=O)N1CCN(CCC(F)(F)F)[C@@H](C)C1` fall at or above the 8 mark?
yes (1)

Does the reported pIC50 for `Cc1cc2[nH]c(=O)c3cnn(C4CCOCC4)c3c2cc1C(=O)N1CCC(OC2CCC2)CC1` fall at or above the 8 mark?
yes (1)

----------
Where a name gives a salt, the structure may show the parent alone.
readout kind: melting point

>>> result("COCCCCN1CCN(C(=O)c2cc3c(cc2C)[nH]c(=O)c2cnn(C4CCCC4)c23)CC1")
"234 to 236 °C"
>>> result("Cc1nn(C2CCCC2)c2c1c(=O)[nH]c1cc(C(=O)N3CCc4cc(F)ccc43)ccc12")
"321 to 323 °C"
>>> result("Cc1cc2[nH]c(=O)c3cnn(C4CCOCC4)c3c2cc1C(=O)N1CCN(C2CCCC2)CC1")
"228 to 230 °C"
>>> result("Cc1cc2[nH]c(=O)c3cnn([C@H]4CCOC4)c3c2cc1C(=O)N1CCC(OC2CC2)CC1")
"197 to 198 °C"
>>> result("Cc1cc2[nH]c(=O)c3cnn(C4CCOCC4)c3c2cc1C(=O)N1CCN(C)C(c2ccccc2)C1 (stereo not drawn)")
"253 to 256 °C"
>>> result("CN1CCN(C(=O)c2ccc3c(c2)[nH]c(=O)c2cnn(C4CCOCC4)c23)CC1c1ccccc1 (stereo not drawn)")
"183 to 186 °C"

The measured melting point associated with `Cc1cc2[nH]c(=O)c3cnn(C4CCOCC4)c3c2cc1C(=O)N1CCC(OCC(C)(F)F)CC1` reads 210 to 211 °C

The measured melting point associated with `Cc1cc2[nH]c(=O)c3cnn(C4CCOCC4)c3c2cc1C(=O)N1CCN(CCCOC(C)(C)C)CC1` reads 238 to 240 °C

The measured melting point associated with `COCCCN1CCN(C(=O)c2cc3c(cc2C)[nH]c(=O)c2cnn(CC4CCC4)c23)CC1` reads 186 to 188 °C

The measured melting point associated with `CCOCCCN1CCN(C(=O)c2cc3c(cc2C)[nH]c(=O)c2cnn(C4CCOCC4)c23)CC1` reads 217 to 219 °C

The measured melting point associated with O=C(c1ccc2c(c1)[nH]c(=O)c1cnn(C3CCOCC3)c12)N1CCOC(c2ccc(F)cc2)C1 (stereo not drawn) reads 293 to 296 °C

The measured melting point associated with O=C(c1ccc2c(c1)[nH]c(=O)c1cnn(C3CCOCC3)c12)N1CCOC(c2ccccc2F)C1 (stereo not drawn) reads 174 to 176 °C

The measured melting point associated with `COCCC1CCN(C(=O)c2cc3c(cc2C)[nH]c(=O)c2cnn(C4CCOCC4)c23)CC1` reads 241 to 242 °C

The measured melting point associated with Cc1cc2[nH]c(=O)c3cnn(C4CCOCC4)c3c2cc1C(=O)N1CCN(Cc2cccnc2)CC1 (as salt: hydrochloride) [Example 2, dihydrochloride] reads 259 to 263 °C
